Items are presented alongside their recorded Neutralization of JCV S269F: EC50 [pM].
- Experimental target: JCV VP1 mutant S269F (John Cunningham virus (JCV), UniProt P03089 1-354)
- Procedure summary: cell-based or functional assay
All answers are understood in pM, so give the number only.

What does the record list as Neutralization of JCV S269F: EC50 [pM] for 1A7 (antibody, V domains shown) VH: QVQLVQSGAEVKKPGASVKVSCKASGYTFTFYDINWVRQATGQGLEWMGWMNPNSGNTGYAQNFQGRVTMTRNTSINTAYLELSSLRSEDTAVYYCARKIWVGHTTFDRWGQGTLVTVSS VL: AIQMTQSPSSLSASVGDRVTITCRASQSISGYLNWYQQKPGKAPNLLIYAASNLQSGVPSRFSGSGSGTDFTLTISSLQREDFAPYYCQQTYNIPFTFGGGTKVEIK ? 7

// returns reported Neutralization of JCV S269F: EC50 [pM] for input 2A11 (antibody, V domains shown) VH: QVQLVESGGGLVKPGGSLRLSCAASGFTFSDHYMSWIRQAPGKGLEWVSYISTSGRTIYYVDSVKGRFTISRDNAKNSLYLQMNSLRAEDMAVYYCASDYYDNVGWNYWGQGALVTVSS VL: DVVLTQSPLSLPVTLGQPASISCRSSQSLVYSDGNTYLNWFQQRPGQSPRRLIYKVSDRDFGVPDRFSGSGSGTDFTLKISRVEAEDVGIYYCMQGTHWPRTFGQGTKVEIK 250

Value lookup for Neutralization of JCV S269F: EC50 [pM]; key = 1A3 (antibody, V domains shown) VH: QVQLVESGGGLVKPGGSLRLSCAASEITFSDYYMSWIRQAPGKGLEWISYISTSGRTIYFADSVKGRFTISRDNAKNSLYLQMNSLRADDTAVYYCASDFYDNSGWEYWGQGTLVTVSS VL: DVVMTQSPLSLSVTLGQPASISCRSSQSLVYSDGNTYLNWFQQRPGQSPRRLIYKVSDRDSGVPDRFSGSGSGTDFTLKISRAEAEDVGVYYCMQGTHWPRTFGQGTKVEIK 37.3

I'd like to know its Neutralization of JCV S269F: EC50 [pM]. The binder in question is 1E12 (antibody, V domains shown) VH: QVQLVESGGGLVKPGGSLRLSCTASGFTFSDHYMSWIRQAPGKGLEWVSYISTGGRTIYYADSVKGRFTISRDNAKNSLYLQMNSLRAEDTAVYYCASDYYDNVGWDYWGQGTLVTVSS VL: DVVLTQSPLSLPVTLGQPASISCRSSQSLIYSDGNTYLNWFQQRPGQSPRRLIYKVSDRDSGVPDRFSGSGSGTDFTLKISRVEAEDVGVYYCMQGTHWPRTFGQGTKVEIK 105

New cases:
Could you share which Neutralization of JCV S269F: EC50 [pM] value was measured for 1E8 (antibody, V domains shown) VH: QVQLVESGGGLVKPGGSLRLSCAASGFTFSDHYMSWIRQAPGKGLEWVSYISTSGSTIYYADSVKGRFTISRDNAKNSLYLQMNSLRAEDTAVYYCASDYYDNSGWNYWGQGTLVTVSS VL: DVVMTQSPLSLPVTLGQPASISCRSSQSLVYSDGNTYLNWFQQRPGQSPRRLIYKVSDRDSGVPDRFSGSGSGTDFTLRISRVEAEDVGVYYCMQGSHWPRTFGQGTKVEIK ? 55.3

Values compiled from patent US20220356228A1.
